biological target: SETD2 (Homo sapiens); assay: biochemical
Readout label: IC50 (µM)
Provide the reading as a plain figure in µM.

The reported IC50 of the compound Nc1ncnc2c1ncn2[C@@H]1O[C@H](CSCC[C@H](N)C(=O)O)[C@@H](O)[C@H]1O was 5.2

---

biological target: DNMT1 (Homo sapiens); assay: biochemical; conditions: read-out: DA3003-1 IC50; inhibitor
Sequence (P26358 whole entry): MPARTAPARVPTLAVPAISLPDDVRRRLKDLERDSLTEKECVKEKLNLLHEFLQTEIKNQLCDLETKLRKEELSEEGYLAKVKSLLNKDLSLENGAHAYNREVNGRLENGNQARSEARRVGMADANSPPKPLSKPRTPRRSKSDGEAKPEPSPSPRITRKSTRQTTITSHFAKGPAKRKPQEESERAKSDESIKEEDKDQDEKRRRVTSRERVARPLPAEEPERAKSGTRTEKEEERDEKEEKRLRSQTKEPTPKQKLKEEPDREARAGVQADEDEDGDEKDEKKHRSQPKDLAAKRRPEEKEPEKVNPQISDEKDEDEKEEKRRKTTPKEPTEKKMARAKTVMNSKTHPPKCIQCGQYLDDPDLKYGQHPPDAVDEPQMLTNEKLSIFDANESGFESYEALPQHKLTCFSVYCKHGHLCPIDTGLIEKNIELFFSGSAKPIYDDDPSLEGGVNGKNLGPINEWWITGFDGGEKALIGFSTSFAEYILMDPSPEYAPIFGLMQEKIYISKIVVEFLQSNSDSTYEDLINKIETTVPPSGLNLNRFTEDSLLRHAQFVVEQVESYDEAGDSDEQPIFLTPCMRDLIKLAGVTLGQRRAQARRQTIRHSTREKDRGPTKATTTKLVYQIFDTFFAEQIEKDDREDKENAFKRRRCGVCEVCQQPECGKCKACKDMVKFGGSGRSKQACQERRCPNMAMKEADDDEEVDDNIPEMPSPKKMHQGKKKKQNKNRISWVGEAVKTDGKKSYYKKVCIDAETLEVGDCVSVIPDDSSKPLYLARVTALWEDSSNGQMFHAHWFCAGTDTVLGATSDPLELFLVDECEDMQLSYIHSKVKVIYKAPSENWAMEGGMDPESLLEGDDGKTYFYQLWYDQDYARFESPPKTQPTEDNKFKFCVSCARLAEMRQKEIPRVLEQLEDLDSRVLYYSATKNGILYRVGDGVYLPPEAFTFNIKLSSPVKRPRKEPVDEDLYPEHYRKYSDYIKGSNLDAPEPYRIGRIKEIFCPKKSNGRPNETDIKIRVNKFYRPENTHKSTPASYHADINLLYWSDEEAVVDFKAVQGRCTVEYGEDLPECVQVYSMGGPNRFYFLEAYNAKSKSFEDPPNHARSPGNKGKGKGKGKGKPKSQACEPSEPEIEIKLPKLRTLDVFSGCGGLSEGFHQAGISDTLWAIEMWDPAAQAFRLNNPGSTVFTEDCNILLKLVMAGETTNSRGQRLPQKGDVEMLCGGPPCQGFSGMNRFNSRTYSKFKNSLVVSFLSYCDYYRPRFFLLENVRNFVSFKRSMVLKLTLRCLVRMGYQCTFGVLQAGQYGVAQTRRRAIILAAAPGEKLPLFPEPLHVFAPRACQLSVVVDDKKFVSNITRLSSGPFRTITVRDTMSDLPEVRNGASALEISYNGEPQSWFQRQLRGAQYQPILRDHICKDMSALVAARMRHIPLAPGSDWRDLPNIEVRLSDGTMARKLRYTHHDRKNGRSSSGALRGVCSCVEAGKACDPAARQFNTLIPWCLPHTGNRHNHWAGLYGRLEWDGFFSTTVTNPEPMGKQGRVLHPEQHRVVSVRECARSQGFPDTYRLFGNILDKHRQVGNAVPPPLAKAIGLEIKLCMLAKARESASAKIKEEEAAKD
Readout label: pIC50
Bear in mind: pIC50 is minus log10 of a mol/L concentration; give just that figure.

Per the records, this molecule ( O=C1C(Cl)=C(NCCN2CCOCC2)C(=O)c2ncccc21 ) has pIC50 equal to 5.77

---

target: DNMT3b/3L (Homo sapiens); assay: biochemical; conditions: read-out: DA3003-1 IC50; inhibitor
Readout label: IC50 (nM)
Express it in nM; write the number only.

IC50 for O=C1C(Cl)=C(NCCN2CCOCC2)C(=O)c2ncccc21 is 720

---

target: MLL1 Complex (Homo sapiens); assay: biochemical; parameters: gene KMT2A
Readout label: IC50 (nM)
Expressed in nM, but write only the number.

For Nc1ncnc2c1ncn2[C@@H]1O[C@H](CSCC[C@H](N)C(=O)O)[C@@H](O)[C@H]1O the compound record lists IC50 as 550

---

Examples of compounds with documented pIC50 follow.
target: SETD2 (Homo sapiens, UniProt Q9BYW2); test: HotSpot [3H]SAM filter-binding methyltransferase assay; format: biochemical; set-up: residues 1434-1711, N-terminal GST fusion, E. coli
Sequence (Q9BYW2 1434-1711): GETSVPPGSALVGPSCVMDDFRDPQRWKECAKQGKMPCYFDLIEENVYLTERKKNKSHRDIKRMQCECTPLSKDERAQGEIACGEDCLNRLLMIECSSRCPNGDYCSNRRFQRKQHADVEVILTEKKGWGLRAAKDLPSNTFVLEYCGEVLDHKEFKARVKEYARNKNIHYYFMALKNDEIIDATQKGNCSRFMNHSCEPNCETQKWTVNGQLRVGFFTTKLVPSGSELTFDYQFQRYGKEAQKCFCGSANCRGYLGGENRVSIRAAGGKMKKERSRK
Bear in mind: pIC50 is minus log10 of a mol/L concentration; give just that figure.

{"Smiles str": "CC1(C)CCC(CN2CCN(c3ccc(C(=O)NS(=O)(=O)c4ccc(NCC5CCOCC5)c([N+](=O)[O-])c4)c(Oc4cnc5[nH]ccc5c4)c3)CC2)=C(c2ccc(Cl)cc2)C1", "Readout label": "pIC50", "Measured": 5.48}

Record O=C1C(Cl)=C(NCCN2CCOCC2)C(=O)c2ncccc21 ; system SETD2 (Homo sapiens, UniProt Q9BYW2); pIC50 = 6.68

---

molecular target: NSD2 (Homo sapiens, UniProt O96028, E1099K); construct: full length (residues 2-1365), N-terminal His tag, insect cell/baculovirus; test: biochemical; design: MTase-Glo bioluminescence methyltransferase assay, full-length NSD2 with HeLa nucleosomes; conditions: read-out: MTase-Glo IC50
Sequence (O96028 2-1365 E1099K): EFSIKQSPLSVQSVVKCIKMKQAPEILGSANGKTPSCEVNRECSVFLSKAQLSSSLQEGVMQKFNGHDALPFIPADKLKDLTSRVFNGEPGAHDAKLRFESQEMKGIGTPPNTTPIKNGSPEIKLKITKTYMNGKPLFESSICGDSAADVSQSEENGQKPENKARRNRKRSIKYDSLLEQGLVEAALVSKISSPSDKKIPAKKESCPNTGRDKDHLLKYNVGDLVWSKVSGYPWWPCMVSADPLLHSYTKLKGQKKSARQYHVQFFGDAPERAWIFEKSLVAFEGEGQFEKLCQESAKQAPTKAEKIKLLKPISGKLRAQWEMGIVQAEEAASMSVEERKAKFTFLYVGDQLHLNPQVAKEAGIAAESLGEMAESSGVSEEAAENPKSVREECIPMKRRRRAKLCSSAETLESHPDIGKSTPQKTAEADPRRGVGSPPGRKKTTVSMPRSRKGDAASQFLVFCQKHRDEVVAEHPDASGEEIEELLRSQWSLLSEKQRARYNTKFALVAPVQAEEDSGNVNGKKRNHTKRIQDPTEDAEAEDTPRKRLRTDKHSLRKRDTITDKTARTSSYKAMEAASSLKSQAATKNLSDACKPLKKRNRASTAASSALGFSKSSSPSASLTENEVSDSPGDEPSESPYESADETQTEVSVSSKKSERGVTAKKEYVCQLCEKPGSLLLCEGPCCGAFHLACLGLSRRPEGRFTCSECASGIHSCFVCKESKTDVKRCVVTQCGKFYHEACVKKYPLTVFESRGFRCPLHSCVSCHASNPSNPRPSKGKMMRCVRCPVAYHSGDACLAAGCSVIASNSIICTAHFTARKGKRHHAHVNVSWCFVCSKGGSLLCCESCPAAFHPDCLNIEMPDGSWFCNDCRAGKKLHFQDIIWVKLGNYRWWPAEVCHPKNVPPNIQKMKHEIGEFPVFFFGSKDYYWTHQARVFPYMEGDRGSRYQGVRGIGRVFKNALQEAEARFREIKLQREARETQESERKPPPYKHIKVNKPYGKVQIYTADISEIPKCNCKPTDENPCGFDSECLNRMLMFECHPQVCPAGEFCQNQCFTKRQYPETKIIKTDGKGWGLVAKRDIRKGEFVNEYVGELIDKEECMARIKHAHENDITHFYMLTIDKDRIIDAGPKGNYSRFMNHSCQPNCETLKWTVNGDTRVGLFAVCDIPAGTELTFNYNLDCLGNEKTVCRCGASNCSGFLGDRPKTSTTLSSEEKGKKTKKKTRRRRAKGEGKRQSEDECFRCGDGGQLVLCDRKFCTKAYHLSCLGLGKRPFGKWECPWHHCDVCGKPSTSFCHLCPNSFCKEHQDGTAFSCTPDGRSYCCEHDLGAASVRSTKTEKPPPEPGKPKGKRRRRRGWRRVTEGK
Readout label: pIC50
pIC50 is defined as minus the log10 of a concentration measured in mol/L.

Per the record, CC1(C)CCC(CN2CCN(c3ccc(C(=O)NS(=O)(=O)c4ccc(NCC5CCOCC5)c([N+](=O)[O-])c4)c(Oc4cnc5[nH]ccc5c4)c3)CC2)=C(c2ccc(Cl)cc2)C1 [ABT-199] has pIC50 of 4.82

---

target: MLL3 Complex (Homo sapiens); assay: biochemical; set-up: gene KMT2C
Readout label: pIC50
Note: pIC50 values are expressed as the negative base-10 logarithm of concentration in M.

// recorded pIC50 for Nc1ncnc2c1ncn2[C@@H]1O[C@H](CSCC[C@H](N)C(=O)O)[C@@H](O)[C@H]1O : 4.24

---

// values below are reported IC50
target: SMYD2 (Homo sapiens); experiment: biochemical
Sequence (Q9NRG4 whole entry): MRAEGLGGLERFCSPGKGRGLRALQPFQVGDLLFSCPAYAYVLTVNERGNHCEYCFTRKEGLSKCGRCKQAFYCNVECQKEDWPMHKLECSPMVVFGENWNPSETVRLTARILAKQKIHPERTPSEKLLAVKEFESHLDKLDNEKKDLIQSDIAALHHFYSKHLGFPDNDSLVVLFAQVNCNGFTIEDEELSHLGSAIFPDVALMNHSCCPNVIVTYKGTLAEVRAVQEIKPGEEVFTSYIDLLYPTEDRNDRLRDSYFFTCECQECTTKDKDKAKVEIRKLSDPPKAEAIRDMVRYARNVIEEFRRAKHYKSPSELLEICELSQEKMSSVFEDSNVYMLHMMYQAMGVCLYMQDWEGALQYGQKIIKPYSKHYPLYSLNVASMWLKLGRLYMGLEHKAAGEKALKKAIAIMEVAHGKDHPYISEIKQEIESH
The reply should read as a number followed by its unit.

{"Smiles str": "CC1(C)CCC(CN2CCN(c3ccc(C(=O)NS(=O)(=O)c4ccc(NCC5CCOCC5)c([N+](=O)[O-])c4)c(Oc4cnc5[nH]ccc5c4)c3)CC2)=C(c2ccc(Cl)cc2)C1", "IC50": "44 µM"}

Now, please, on to the next compound.
COc1cccc(-n2nc(C(=O)O)cc2-c2ccc(C3CCCCC3)c(Cl)c2)c1 yielded IC50 of 21 µM

Origin of measurements: paper doi:10.1101/208439v1
